experiment: Absorption and plasma kinetics after oral administration of salts to rat; conditions: male, SD, rat, plasma, po, 10 mg base eq./kg
Counter-ions that a name gives are not always drawn.
Measured quantity: concentration at 0.5 h
Kindly write the number and append the unit.

Entry under review: Cn1cc(-c2ccc3nnc(C(F)(F)c4ccc5ncccc5c4)n3n2)cn1 [HCl salt] . Reported concentration at 0.5 h?
3090 ng/mL

* * *

experiment: Absorption and plasma kinetics after oral administration of salts to rat; conditions: male, SD, rat, plasma, po, 10 mg base eq./kg
Counter-ions that a name gives are not always drawn.
Measured quantity: concentration at 4 h (ng/mL)
Please reply with the bare figure in ng/mL and do not write the unit itself.

Entry under review: Cn1cc(-c2ccc3nnc(C(F)(F)c4ccc5ncccc5c4)n3n2)cn1 [HCl salt] . Reported concentration at 4 h?
2710
